Target under test: CD33-GFP fusion protein, wild type (WT), on 293FT cells (UniProt P20138)
Sequence (P20138 18-364): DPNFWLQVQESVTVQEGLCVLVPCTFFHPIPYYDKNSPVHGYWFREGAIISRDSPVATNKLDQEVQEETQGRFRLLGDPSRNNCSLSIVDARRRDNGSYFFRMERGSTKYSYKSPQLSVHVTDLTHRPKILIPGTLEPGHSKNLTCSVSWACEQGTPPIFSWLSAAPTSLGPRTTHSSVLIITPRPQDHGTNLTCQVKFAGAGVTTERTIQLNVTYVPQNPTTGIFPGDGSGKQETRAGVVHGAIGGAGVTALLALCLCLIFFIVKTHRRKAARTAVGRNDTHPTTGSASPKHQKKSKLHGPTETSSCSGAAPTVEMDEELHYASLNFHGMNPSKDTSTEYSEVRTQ
Test name: FACS, WT CD33-GFP on 293FT cells
Reported FACS binding data values for a set of binders
Number only, no unit.

// solved cases for FACS binding data follow
| Binder | Readout value |
| --- | --- |
| sdCD33_5 (VHH, sdAb from a naive llama phage library; also called 413; sdAb413) VHH: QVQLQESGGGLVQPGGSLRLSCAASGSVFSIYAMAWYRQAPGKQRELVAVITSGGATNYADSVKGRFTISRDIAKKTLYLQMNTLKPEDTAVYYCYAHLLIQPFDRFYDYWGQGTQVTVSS | 98 |
| sdCD33_3 (VHH) VHH: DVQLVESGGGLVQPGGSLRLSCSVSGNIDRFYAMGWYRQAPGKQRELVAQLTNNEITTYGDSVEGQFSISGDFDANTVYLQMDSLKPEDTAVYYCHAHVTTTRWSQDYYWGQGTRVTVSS | 98.3 |
| sdCD33_4 (VHH) VHH: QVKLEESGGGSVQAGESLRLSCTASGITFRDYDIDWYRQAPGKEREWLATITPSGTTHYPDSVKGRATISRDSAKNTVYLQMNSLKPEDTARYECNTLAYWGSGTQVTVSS | 98.4 |

Pending binder:
Name the reported FACS binding data value associated with the binder sdCD33_7 (VHH, sdAb from a naive llama phage library; also called 420; sdAb420) VHH: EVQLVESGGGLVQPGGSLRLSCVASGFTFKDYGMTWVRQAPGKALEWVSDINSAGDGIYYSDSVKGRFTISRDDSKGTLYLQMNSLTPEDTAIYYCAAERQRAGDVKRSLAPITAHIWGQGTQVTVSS
98.6
